Test summary: A549 lung cancer cell viability effects, profiling panel, resazurin fluorescence, 24 h, PK04 Diversity Set (AID 1171); note: test concentration not given here
Particulars: higher = more signal, called active from +8 up or from −8 down
Reported endpoint: z-score

Molecule	Measured number
COCCOC(=O)N1C(=O)[C@@]2(c3cc(C#CCC(C(=O)OC)C(=O)OC)ccc31)[C@H](c1ccc(O)cc1)N1[C@H](c3ccccc3)[C@H](c3ccccc3)OC(=O)[C@H]1[C@@H]2C(=O)N1CCc2cc(OC)c(OC)cc2C1	0.742
O=C1O[C@H](c2ccccc2)[C@H](c2ccccc2)N2[C@H]1[C@@H](C(=O)O)[C@]1(C(=O)Nc3ccc(C#CC4(O)CCCCCC4)cc31)[C@H]2c1ccccc1OCCO	0.95
COc1ccc([Si](C)(C)[C@H]2[C@H](CC(=O)N(CCO)Cc3ccccc3)O[C@@]3(C(=O)N(Cc4ccc(N5C(=O)c6cccc7cccc5c67)cc4)c4ccccc43)[C@@H]2C)cc1	-2.22
CCOC(=O)C1=CCC(c2ccncc2)N(S(=O)(=O)c2ccc(C)cc2)C1 (stereo not given)	-0.44
C=C(COC)C(=O)CC[C@H](OC(C)=O)c1ccccc1OCCO	-0.164
